Pectinesterase % Yield Difference for assorted compounds
System: Pectinesterase (EC 3.1.1.11)
Assay: Pectinesterase/p-Nitrophenyl acetate reaction gas run (spectrophotometric, 400 nm)
Format: biochemical, Orange Peel
Conditions: 35° C.; maximum effect, percent change compared to air

[
  {
    "record.smiles": "[Ne]",
    "Pectinesterase % Yield Difference (%)": 1.4
  },
  {
    "record.smiles": "[Xe]",
    "Pectinesterase % Yield Difference (%)": 0.0
  },
  {
    "record.smiles": "[Ar]",
    "Pectinesterase % Yield Difference (%)": 0.70
  },
  {
    "record.smiles": "[Kr]",
    "Pectinesterase % Yield Difference (%)": 2.1
  }
]
